# Test system: VM46 (resistant variant of human colon carcinoma HCT 116)
# Experiment Notes: In vitro cytotoxicity, cell colony formation assay, VM46
# Format: cell-based
# Reported Conditions: 72 h drug incubation
Measured Metric: IC50 (nM)
Hi! Could you send only the number? It should be in nM, unit omitted.

Prompt: Could you share which IC50 value was measured for CC(=O)OC12COC1CC(O)C1(C)C(=O)C(OC(=O)C3CC3)C3=C(C)C(OC(=O)C(O)C(NC(=O)OC(C)(C)C)c4ccoc4)CC(O)(C(OC(=O)c4ccccc4)C21)C3(C)C (stereo not drawn) [Compound 2781, reference compound] ?
Completion: 1.91

Prompt: Also CCCC(=O)NC(c1ccco1)C(O)C(=O)OC1CC2(O)C(OC(=O)c3ccccc3)C3C4(OC(C)=O)COC4CC(O)C3(C)C(=O)C(OC(=O)C3CC3)C(=C1C)C2(C)C (stereo not drawn) , if possible.
Completion: 7.64

Prompt: Would you mind doing CC(=O)OC12COC1CC(O)C1(C)C(=O)C(OC(=O)C3CC3)C3=C(C)C(OC(=O)C(O)C(NC(=O)OC(C)C)c4ccco4)CC(O)(C(OC(=O)c4ccccc4)C21)C3(C)C (stereo not drawn) [Compound 3853, reference compound] as well?
Completion: 0.99

Prompt: Try this compound next: CCOC(=O)NC(c1ccco1)C(O)C(=O)OC1CC2(O)C(OC(=O)c3ccccc3)C3C4(OC(C)=O)COC4CC(O)C3(C)C(=O)C(OC(=O)C3CC3)C(=C1C)C2(C)C (stereo not drawn)
Completion: 18.6

Prompt: // repeat for CC(=O)OC12COC1CC(O)C1(C)C(=O)C(OC(=O)C3CC3)C3=C(C)C(OC(=O)C(O)C(NC(=O)OC(C)(C)C)c4ccco4)CC(O)(C(OC(=O)c4ccccc4)C21)C3(C)C (stereo not drawn) [Compound 0843, reference compound] and report
Completion: 0.86

Prompt: Then this compound: CC(=O)OC12COC1CC(O)C1(C)C(=O)C(OC(=O)C3CC3)C3=C(C)C(OC(=O)C(O)C(NC(=O)OC(C)C)c4cccs4)CC(O)(C(OC(=O)c4ccccc4)C21)C3(C)C (stereo not drawn) [Compound 3071, reference compound]
Completion: 1.51

Prompt: Param item: CC(=O)OC12COC1CC(O)C1(C)C(=O)C(OC(=O)C3CC3)C3=C(C)C(OC(=O)C(O)C(NC(=O)OCC(C)C)c4ccoc4)CC(O)(C(OC(=O)c4ccccc4)C21)C3(C)C (stereo not drawn)
Completion: 28.4

Prompt: What about CC(=O)OC12COC1CC(O)C1(C)C(=O)C(OC(=O)C3CC3)C3=C(C)C(OC(=O)C(O)C(NC(=O)OCC(C)C)c4ccsc4)CC(O)(C(OC(=O)c4ccccc4)C21)C3(C)C (stereo not drawn) ?
Completion: 8.47

Prompt: Also, CC(=O)OC12COC1CC(O)C1(C)C(=O)C(OC(=O)C3CC3)C3=C(C)C(OC(=O)C(O)C(NC(=O)OC(C)(C)C)c4ccccn4)CC(O)(C(OC(=O)c4ccccc4)C21)C3(C)C (stereo not drawn) please.
Completion: 3.32

Prompt: Thanks! And CCCC(=O)NC(c1cccs1)C(O)C(=O)OC1CC2(O)C(OC(=O)c3ccccc3)C3C4(OC(C)=O)COC4CC(O)C3(C)C(=O)C(OC(=O)C3CC3)C(=C1C)C2(C)C (stereo not drawn) ?
Completion: 5.33

Prompt: Also CC(=O)OC12COC1CC(O)C1(C)C(=O)C(OC(=O)C3CC3)C3=C(C)C(OC(=O)C(O)C(NC(=O)OC(C)(C)C)c4cccs4)CC(O)(C(OC(=O)c4ccccc4)C21)C3(C)C (stereo not drawn) [Compound 0854, reference compound] ?
Completion: 0.09

Prompt: And what about the compound CC(=O)OC12COC1CC(O)C1(C)C(=O)C(OC(=O)C3CC3)C3=C(C)C(OC(=O)C(O)C(NC(=O)OCC(C)C)c4cccs4)CC(O)(C(OC(=O)c4ccccc4)C21)C3(C)C (stereo not drawn) ?
Completion: 2.88

Prompt: And CC(=O)OC12COC1CC(O)C1(C)C(=O)C(OC(=O)C3CC3)C3=C(C)C(OC(=O)C(O)C(NC(=O)OC(C)(C)C)c4ccsc4)CC(O)(C(OC(=O)c4ccccc4)C21)C3(C)C (stereo not drawn) ?
Completion: 2.03

Prompt: # iterate: `CC(=O)O[C@@]12CO[C@@H]1C[C@H](O)[C@@]1(C)C(=O)[C@H](O)C3=C(C)[C@@H](OC(=O)[C@H](O)[C@@H](NC(=O)OC(C)(C)C)c4ccccc4)C[C@@](O)([C@@H](OC(=O)c4ccccc4)[C@H]21)C3(C)C`
Completion: 6.7

Prompt: Ok, now CCOC(=O)NC(c1cccs1)C(O)C(=O)OC1CC2(O)C(OC(=O)c3ccccc3)C3C4(OC(C)=O)COC4CC(O)C3(C)C(=O)C(OC(=O)C3CC3)C(=C1C)C2(C)C (stereo not drawn)
Completion: 1.62
